Listed next: entries and their corresponding 50% inhibition concentration, Regnase-1 phosphorylation by IKKβ (AlphaScreen).
Target: T1, C-terminal human Regnase-1 (amino acids 301 to 599) with N-terminal FLAG tag and C-terminal BirA recognition … (human, UniProt Q5D1E8 301-599)
T1 sequence: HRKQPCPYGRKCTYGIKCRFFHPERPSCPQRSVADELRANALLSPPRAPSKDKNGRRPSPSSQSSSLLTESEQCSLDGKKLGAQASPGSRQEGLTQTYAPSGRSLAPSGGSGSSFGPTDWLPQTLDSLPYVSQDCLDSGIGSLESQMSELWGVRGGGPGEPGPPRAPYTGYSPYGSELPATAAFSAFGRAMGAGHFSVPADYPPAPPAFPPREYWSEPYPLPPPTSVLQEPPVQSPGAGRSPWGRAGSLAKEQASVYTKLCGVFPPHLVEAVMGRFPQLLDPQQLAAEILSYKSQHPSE
Test: cell-based or functional assay
Positions of bridges follow the written chain, without caps; N, C: chain ends. Non-standard residues stand in square brackets, D forms with d. *: point of attachment. Pyrrolidide = C1CCN(*)C1; dNMeA = CN[C@H](C)C(=O)O
Give just the numeric value; µM need not be written.

Record excerpt, results attached:
{"binder": "[dNMeA]EDTPEDDHD-Pyrrolidide (lactam N-10) [PP25]", "result.units": "µM", "number": 27.6}
{"binder": "XGYANSWYNIWD (HELM PEPTIDE1{[meA].G.Y.A.N.S.W.Y.N.I.W.D.[C1CCN([*:1])C1]}$PEPTIDE1,PEPTIDE1,1:R1-12:R3$$$V2.0; SMILES CC[C@H](C)[C@@H]1NC(=O)[C@H](CC(N)=O)NC(=O)[C@H](Cc2ccc(O)cc2)NC(=O)[C@H](Cc2c[nH]c3ccccc23)NC(=O)[C@H](CO)NC(=O)[C@H](CC(N)=O)NC(=O)[C@H](C)NC(=O)[C@H](Cc2ccc(O)cc2)NC(=O)CNC(=O)[C@H](C)N(C)C(=O)C[C@@H](C(=O)N2CCCC2)NC(=O)[C@H](Cc2c[nH]c3ccccc23)NC1=O) [PP2]", "result.units": "µM", "number": 18.5}

Next:
Sample XPNSSWFKIWD (HELM PEPTIDE1{[C[C@H](C(=O)[*:2])N(C)[*:1]].P.N.S.S.W.F.K.I.W.D.[C1CCN([*:1])C1]}$PEPTIDE1,PEPTIDE1,1:R1-11:R3$$$V2.0; SMILES CC[C@H](C)[C@@H]1NC(=O)[C@H](CCCCN)NC(=O)[C@H](Cc2ccccc2)NC(=O)[C@H](Cc2c[nH]c3ccccc23)NC(=O)[C@H](CO)NC(=O)[C@H](CO)NC(=O)[C@H](CC(N)=O)NC(=O)[C@@H]2CCCN2C(=O)[C@@H](C)N(C)C(=O)C[C@@H](C(=O)N2CCCC2)NC(=O)[C@H](Cc2c[nH]c3ccccc23)NC1=O) [PP6] — what was its 50% inhibition concentration, Regnase-1 phosphorylation by IKKβ (AlphaScreen)?
17.5
